Molecular target: hAhR (Homo sapiens, UniProt P35869)
Construct: Stably integrated DRE-luciferase cell lines were generated by transducing the both cell lines with Cignal XRE luciferase reporter; endogenous in cells
Sequence (P35869 11-848): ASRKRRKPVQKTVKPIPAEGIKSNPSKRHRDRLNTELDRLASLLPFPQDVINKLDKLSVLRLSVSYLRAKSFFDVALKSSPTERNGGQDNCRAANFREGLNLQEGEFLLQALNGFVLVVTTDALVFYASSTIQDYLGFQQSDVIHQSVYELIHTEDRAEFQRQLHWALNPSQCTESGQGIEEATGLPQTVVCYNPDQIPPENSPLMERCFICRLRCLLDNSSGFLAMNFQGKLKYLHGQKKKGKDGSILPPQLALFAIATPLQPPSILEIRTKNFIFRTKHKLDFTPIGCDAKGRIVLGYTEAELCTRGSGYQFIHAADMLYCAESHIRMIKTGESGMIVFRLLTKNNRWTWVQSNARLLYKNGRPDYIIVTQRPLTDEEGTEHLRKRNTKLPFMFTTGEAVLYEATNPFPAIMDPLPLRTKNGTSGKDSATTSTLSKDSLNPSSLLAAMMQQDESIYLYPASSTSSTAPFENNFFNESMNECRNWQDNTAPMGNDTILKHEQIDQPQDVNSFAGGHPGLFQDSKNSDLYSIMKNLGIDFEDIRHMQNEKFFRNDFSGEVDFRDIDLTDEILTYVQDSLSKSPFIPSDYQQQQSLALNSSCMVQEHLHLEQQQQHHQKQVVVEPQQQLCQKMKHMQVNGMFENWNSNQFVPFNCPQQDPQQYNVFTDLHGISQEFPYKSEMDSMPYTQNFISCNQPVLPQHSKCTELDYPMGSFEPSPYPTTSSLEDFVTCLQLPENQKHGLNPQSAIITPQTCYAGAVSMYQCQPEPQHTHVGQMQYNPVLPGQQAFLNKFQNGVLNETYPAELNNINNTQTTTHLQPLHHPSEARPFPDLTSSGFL
Assay: DRE-luciferase transcriptional reporter assay in HEPG2 DRE-Luc cells, TCDD-induced (antagonist mode)
Settings: relative IC50, 3 nM TCDD, 24-hour incubation, firefly luciferase readout
pIC50: −log10 of the molar value.
Recorded pIC50 values for a group of compounds are listed next.

Solved entries (count: 5):
>  <compound>
Cc1cc(-c2ncc3cc(C(F)(F)F)ccc3n2)ccc1N1CCn2nc(C(C)O)cc2C1=O (stereo not shown) [compound 092]

>  <pIC50>
> 6.70

$$$$
>  <compound>
Cc1cc(-c2ncc3cc(C(F)(F)F)ccc3n2)ccc1N1CCn2ncc(N3CCOCC3)c2C1=O [compound 068]

>  <pIC50>
> 6.70

$$$$
>  <compound>
Cc1cc(N2CCn3ncc(C)c3C2=O)c(C)cc1-c1ncc2nc(C(F)(F)F)ccc2n1 [compound 019]

>  <pIC50>
> 6.70

$$$$
>  <compound>
Cc1cc(-c2ncc3cc(C(F)(F)F)ccc3n2)ccc1N1CCOc2cnn(CCN3CCOCC3)c2C1=O [compound 071]

>  <pIC50>
6.00 to 6.30

$$$$
>  <compound>
Cc1cc(-c2ncc3cc(C(F)(F)F)ccc3n2)ccc1N1CCn2ncc(C(N)=O)c2C1=O [compound 066]

>  <pIC50>
> 6.70

$$$$

**Q:** Look up pIC50 for this compound: Cc1cc(-c2ccc3nc(C(F)(F)F)ccc3n2)ccc1N1CCn2ncc(C)c2C1=O [compound 006]
**A:** > 6.70

**Q:** Now consider Cc1cc(-c2ncc3cc(C(F)(F)F)ccc3n2)ccc1N1CCn2nc(C(=O)N3CCN(C)CC3)c(C)c2C1=O [Example 107] .
**A:** > 6.70

**Q:** Now consider Cc1cc(-c2ncc3cc(C(F)(F)F)ccc3n2)ccc1N1CCn2nc(CN3CCC(F)(F)CC3)c(C)c2C1=O [Example 108] .
**A:** > 6.70
